Below, each entry is listed alongside its reported pEC50.
- assay-system: GCase (Homo sapiens, UniProt P04062)
- Construct: endogenous in cells; host or cells: HeLa cells
- Sequence (P04062 40-536): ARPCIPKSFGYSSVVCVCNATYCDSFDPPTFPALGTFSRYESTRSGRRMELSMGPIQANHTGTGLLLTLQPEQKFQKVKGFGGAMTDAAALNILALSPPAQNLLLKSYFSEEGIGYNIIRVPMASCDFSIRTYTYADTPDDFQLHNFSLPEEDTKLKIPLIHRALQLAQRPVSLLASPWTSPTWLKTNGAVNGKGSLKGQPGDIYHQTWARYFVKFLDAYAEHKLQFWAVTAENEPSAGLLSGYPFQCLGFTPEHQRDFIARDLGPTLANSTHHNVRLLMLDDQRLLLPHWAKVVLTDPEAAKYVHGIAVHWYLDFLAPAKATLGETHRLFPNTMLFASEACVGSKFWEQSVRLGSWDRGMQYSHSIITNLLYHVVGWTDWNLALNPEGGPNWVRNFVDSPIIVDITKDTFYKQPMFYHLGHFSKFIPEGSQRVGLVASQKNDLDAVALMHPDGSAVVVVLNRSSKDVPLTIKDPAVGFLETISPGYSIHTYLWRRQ
- method-notes: activation of GCase in a live cell PFB assay in HELA cells
- Type: cell-based
- test-settings: activation of GCase, EC50 ranges
pEC50: −log10 of the molar value.

Some solved entries appear below for comparison.
State the recorded pEC50 for this entry: `FC(F)Cn1ncc2ncc(N3CCC4(CC3)CN(c3cc(C(F)(F)F)ccn3)c3ccccc34)nc21`
4.30 to 5.00

Quick one: `FC(F)(F)Cn1ncc2ncc(N3CCC4(CCN(c5cc(C(F)(F)F)ccn5)CC4)C3)nc21`
4.30 to 5.00

Please answer likewise for `Cc1nn(CC(F)F)c2nc(N3CC4(CCN(c5ccnc(C(F)(F)F)c5)C4)C3)cnc12`
> 5.00

Next compound: `Cc1nn(C2COC2)c2nc(N3CCC4(CC3)CCN(c3ccc(C(F)(F)F)nc3)C4=O)ncc12`
4.30 to 5.00

Continue with `FC(F)Cn1ncc2ncc(N3CCCC4(CN(c5cc(C(F)(F)F)ccn5)C4)C3)nc21`
4.30 to 5.00

Queued: Cc1nc(N2CCC3(CCN(c4cnc5cnn(CC(F)F)c5n4)C3=O)C2)cc(C(F)(F)F)n1 (stereo not drawn)
> 5.00

---
Name the recorded pEC50 for `O=C1N(Cc2ccnc(C(F)(F)F)c2)CCC12CCN(c1cnc3cnn(CC(F)F)c3n1)CC2` .
> 5.00

Same question for `Cc1nc(N2CCC3(CCN(c4ncc5cnn(C6COC6)c5n4)CC3)C2)cc(C(F)(F)F)n1` please.
< 4.00

Also, `CCn1c(-c2cncc(F)c2)nc2ncc(N3CCC4(CN(c5ccnc(C(F)(F)F)c5)C4)C3)nc21` please.
> 5.00

Same lookup for `FC(F)Cn1ncc2cnc(N3CCC4(CC3)CN(c3cc(C(F)(F)F)ccn3)C4)nc21` , please.
4.30 to 5.00

And then `O=C1CC2(CCN(c3cnc4cnn(CC(F)F)c4n3)CC2)CN1Cc1ccnc(OCC(F)(F)F)n1` , what is it?
> 5.00

###

compounds and their reported EC50
- assay-system: GCase (Homo sapiens, UniProt P04062)
- Construct: endogenous in cells; host or cells: HeLa cells
- method-notes: activation of GCase in a live cell PFB assay in HELA cells
- Assay type: cell-based
- test-settings: activation of GCase, EC50 ranges

Please review the entries below; each comes with its answer.
Can you look up the measured EC50 of `FC(F)Cn1ncc2ncc(N3CCC4(CCN(c5cnc(OCC(F)(F)F)nc5)C4)CC3)nc21` for me?
< 10 µM

Now try `CCn1c(N2CCC3(CCN(c4ccnc(C(F)(F)F)c4)C3)CC2)nc2c(cnn2CC(F)F)c1=O` .
< 10 µM

Would you kindly repeat that for `FC(F)Cn1ncc2ncc(N3CCC4(CC3)CN(c3cc(C(F)(F)F)ccn3)C4)nc21` ?
< 10 µM

Others:
I'd like to know its EC50. The compound in question is FC(F)Cn1ncc2ncc(N3CCC4(CN(c5ccc(C(F)(F)F)nc5)CCO4)C3)nc21 (stereo not shown)
> 100 µM

Try the compound CCC1N(c2ccc(C(F)(F)F)cn2)C(=O)CC12CCN(c1cnc3cnn(C4COC4)c3n1)CC2 (stereo not shown)
10 to 50 µM

# repeat for `COc1nn(C2COC2)c2nc(N3CCC4(CN(c5ccnc(C(F)(F)F)c5)C4)C3)cnc12`
< 10 µM

Cool, now `Cc1nn(C2COC2)c2nc(N3CCC4(CC3)CCN(c3ccc(C(F)(F)F)nc3)C4=O)cnc12`
10 to 50 µM

###

# EC50 values compiled below
- assay-system: GCase (Homo sapiens)
- Construct: endogenous in cells; host or cells: HeLa cells
- method-notes: activation of GCase in a live cell PFB assay in HELA cells
- Type: cell-based
- test-settings: activation of GCase, EC50 ranges

Worked examples, 10 molecules total:
What value of EC50 has been reported for the following molecule? `Cc1nc(N2CC3(CCN(c4ncc5c(C)nn(CC(C)(F)F)c5n4)C3)C2)cc(C(F)(F)F)n1`
< 10 µM

// query: FC(F)Cn1ncc2ncc(N3CCC4(CCC(Oc5cc(C(F)(F)F)ccn5)C4)CC3)nc21 (stereo not shown)
10 to 50 µM

Similarly, `FC(F)c1ccnc(N2CCC3(CC2)CCN(c2cnc4cnn(CC(F)(F)F)c4n2)C3)c1` ?
< 10 µM

What about `COc1nc2cnn(CC(F)F)c2nc1N1CCC2(CC1)CC(=O)N(c1ccc(C(F)(F)F)nc1)C2` ?
< 10 µM

Now the molecule `O=C(c1cnc(C(F)(F)F)nc1)N1CC2(CCN(c3cnc4cnn(CC(F)F)c4n3)C2)C1`
10 to 50 µM

Next record, please: `Cc1ncc(N2CCC3(CCN(c4cnc5cnn(CC(F)F)c5n4)CC3)C2)nc1C(F)(F)F`
< 10 µM

How about this molecule: FC(F)Cn1ncc2ncc(N3CCCC4(CCN(c5cccc(C(F)(F)F)n5)C4)C3)nc21 (stereo not shown)
10 to 50 µM

// same read-out, input: `O=C1CC2(CCN(c3cncc(C(F)(F)F)c3)CC2)CN1c1cnc2cnn(CC(F)F)c2n1`
10 to 50 µM

Would you kindly repeat that for O=C1CC2(CCN(c3ccnc(C(F)(F)F)c3)C2)CN1c1cnc2cnn(CC(F)F)c2n1 (stereo not shown) ?
> 100 µM

Try the molecule `O=C1N(c2ccc(C(F)(F)F)cn2)C2(CC2)CC12CCN(c1cnc3cnn(CC(F)F)c3n1)CC2`
50 to 100 µM

Next:
Fill in the blank: the reported EC50 of `CCOc1ccc(CN2CC3(CCN(c4cnc5cnn(CC(F)F)c5n4)CC3)CC2=O)cn1` is ____.
10 to 50 µM

Also `COc1nn(CC(F)F)c2nc(N3CCC4(CN(c5ccnc(C(F)(F)F)c5)C4)C3)cnc12` , if possible.
< 10 µM

Same again, this time with `FC(F)(F)c1cc(N2CCC3(C2)CN(c2ncc4cnn(C5COC5)c4n2)C3)ccn1`
10 to 50 µM

Next record, please: `Cc1nc(N2CC3(CCN(c4ncc5c(C)nn(C)c5n4)C3)C2)cc(C(F)(F)F)n1`
< 10 µM

Same again, this time with `FC(F)Cn1ncc2ncc(N3CCC4(CCN(c5ccc(C(F)(F)F)nn5)C4)CC3)nc21`
10 to 50 µM

Continue with `O=C1N(Cc2cnc(C(F)(F)F)nc2)CCC12CCN(c1cnc3cnn(CC(F)F)c3n1)CC2`
10 to 50 µM

Another: `O=C1N(c2cnc3cnn(CC(F)F)c3n2)CCC12CCN(c1cnc(C(F)(F)F)cn1)CC2`
> 100 µM

Can you handle O=C1CC2(CCCN(c3cnc4cnn(CC(F)F)c4n3)C2)CN1c1cc(C(F)(F)F)ccn1 (stereo not shown) next?
50 to 100 µM

###

Recorded pEC50 by entry
- assay-system: GCase (Homo sapiens)
- Construct: endogenous in cells; host or cells: HeLa cells
- method-notes: activation of GCase in a live cell PFB assay in HELA cells
- Type: cell-based
- test-settings: activation of GCase, EC50 ranges
pEC50: −log10 of the molar value.

Record excerpt, results attached:
What pEC50 value was documented for this compound, `Cc1cc(F)cc(-n2cc(C(=O)N3CCC4(CC3)CCN(c3cc(C(F)(F)F)ccn3)C4=O)nn2)c1` ?
4.30 to 5.00

Another: `Cc1nc(N2CC3(CCN(c4ncc5c(C)nn(C6COC6)c5n4)CC3)C2)cc(C(F)(F)F)n1`
4.30 to 5.00

Can you handle `O=C1CC2(CCN(c3cnc4cnn(C5COC5)c4n3)CC2)CN1c1cc(C(F)(F)F)ccn1` next?
4.00 to 4.30

// query: `CCc1nn(CC(F)F)c2nc(N3CCC4(CN(c5ccnc(C(F)(F)F)c5)C4)C3)cnc12`
4.30 to 5.00

Next up: `COc1nn(CC(F)F)c2nc(N3CCC4(CC3)CC(=O)N(c3nccc(C(F)(F)F)n3)C4)cnc12`
4.30 to 5.00

---
Look up pEC50 for this compound: `Cc1nc(N2CC3(CCN(c4ncc5cnn(CC(F)(F)F)c5n4)C3)C2)cc(C(F)(F)F)n1`
< 4.00

// query: `O=C1N(c2cncc(C(F)(F)F)n2)CCC12CCN(c1ncc3cnn(CC(F)F)c3n1)CC2`
< 4.00

Input `O=C1CC2(CCN1c1cnc3cnn(CC(F)F)c3n1)CN(c1cccc(C(F)(F)F)n1)C2`
4.00 to 4.30

Now the compound `O=C1N(c2cc(C(F)(F)F)ccn2)C(=O)C2(CCN(c3cnc4cnn(CC(F)F)c4n3)CC2)N1Cc1ccc(F)c(F)c1`
> 5.00

Likewise for `Cc1nc(N2CC3(CCN(c4cnc5c(n4)n(CC(F)F)c(=O)n5C)C3)C2)cc(C(F)(F)F)n1` ?
> 5.00

Also `CCc1ncc(N2CCC3(CCN(c4cnc5cnn(CC(F)F)c5n4)CC3)C2)cn1` , if possible.
> 5.00

Same for `FC(F)(F)Cn1ncc2ncc(N3CC4(CCN(c5ccnc(C(F)(F)F)c5)C4)C3)nc21`
> 5.00

Same lookup for `Cc1nc(N2CCC3(CCN(c4cnc5c(C)nn(C6COC6)c5n4)CC3)C2)cc(C(F)(F)F)n1` , please.
< 4.00
